- Read-out: Alpha-fetoprotein (AFP) gene, AFP (gene 174)
- assay_name: LTEA_HepaRG_AFP: Life Technologies and Expression Analysis (LTEA) Assay for Alpha-fetoprotein (AFP) gene using HepaRG (AID 2283472)
- conditions_used: mRNA level, 48 h; actives raise or lower the signal
Activity calls are given as the source filed them. Rule for the calls: active = hit-call score of the fitted dose curve at least 0.9, where 1 is the maximum; inactive = score below 0.9.
A correct response names exactly one class from active, inactive

These solved cases illustrate the format of a correct answer.
O=C(c1ccc(OCCN2CCCCC2)cc1)c1c(-c2ccc(O)cc2)sc2cc(O)ccc12 = inactive
COC(=O)c1ccc(C(=O)OC)cc1 = inactive
C=C(C)C(N)=O = inactive
C[C@]12CC[C@@H]3c4ccc(O)cc4CC[C@H]3[C@@H]1CC[C@@H]2O = active

Data request: Each compound tested received a call. Report the one for `CCCCOCCOCCO` .
Data returned: inactive
